Where do these numbers come from? They come from patent US10208071B2.

- measurement.target: FPR2 (Homo sapiens (Human))
- experiment.summary: FLIPR Ca+2 response, HEK-Gα16 cells stably expressing the human FPR2 receptor (Table 4)
- Format: cell-based
- condition: efficacy in parentheses

compound	FPR2 (efficacy)
CC1(CCc2ccccc2)NC(=O)N(NC(=O)Nc2ccc(Br)cc2)C1=O (single isomer, unassigned; (+)) [Compound 57]	nM (0.93)
CC[C@H](C)[C@H](NC(=O)Nc1ccc(Br)cc1)C(=O)NCC(=O)O	(1.0)
CCOP(=O)(CNC(=O)[C@H](Cc1ccccc1)NC(=O)Nc1ccc(Br)cc1)OCC	nM (0.93)

---

- measurement.target: FPR2 (Homo sapiens (Human), UniProt P25090)
- Sequence (P25090 whole entry): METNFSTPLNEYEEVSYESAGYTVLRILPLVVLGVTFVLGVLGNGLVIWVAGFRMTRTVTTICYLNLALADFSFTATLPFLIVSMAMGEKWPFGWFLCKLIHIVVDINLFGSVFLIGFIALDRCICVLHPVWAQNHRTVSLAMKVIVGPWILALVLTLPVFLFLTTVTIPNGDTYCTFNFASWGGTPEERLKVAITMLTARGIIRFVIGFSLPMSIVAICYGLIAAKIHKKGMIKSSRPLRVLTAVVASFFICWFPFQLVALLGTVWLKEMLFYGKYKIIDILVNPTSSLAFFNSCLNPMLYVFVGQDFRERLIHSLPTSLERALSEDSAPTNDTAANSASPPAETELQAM
- experiment.summary: FLIPR Ca+2 response, HEK-Gα16 cells stably expressing the human FPR2 receptor (Table 4)
- Assay type: cell-based

compound	EC50
CC(C)C[C@H](NC(=O)Nc1ccc(Br)cc1)C(=O)NCS(=O)(=O)O	2 nM
CSc1ccc(NC(=O)N[C@@H](CC(C)C)C(=O)NCC(=O)O)cc1	3 nM
CCC1(CCc2ccccc2C(=O)O)NC(=O)N(NC(=O)Nc2ccc(Br)cc2)C1=O (centres unmarked)	17.2 nM
CC(C)CC(C)(NC(=O)Nc1ccc(Br)cc1)C(=O)O (centres unmarked)	19.4 nM
CC[C@H](C)[C@H](NC(=O)Nc1ccc(Br)cc1F)C(=O)NCC(N)=O	10.3 nM
CC1(CCc2ccccc2F)NC(=O)N(NC(=O)Nc2ccc(Br)cc2)C1=O (centres unmarked)	14.3 nM
CC(C)C1(CCc2ccccc2C(=O)O)NC(=O)N(NC(=O)Nc2ccc(Br)cc2)C1=O (centres unmarked)	5.8 nM
CCOP(=O)(CNC(=O)[C@H](CC(C)C)NC(=O)Nc1ccc(SC)cc1)OCC	3.5 nM

---

Overview of reported EC50 across a group of compounds:
- measurement.target: FPR2 (Homo sapiens (Human))
- experiment.summary: FLIPR Ca+2 response, HEK-Gα16 cells stably expressing the human FPR2 receptor (Table 4)
- Format: cell-based
- condition: unit inferred

compound	measurement.target	EC50 / nM
CCC1(CCc2ccccc2)NC(=O)N(NC(=O)Nc2ccc(Br)cc2)C1=O (stereo not shown)	FPR2 (Homo sapiens (Human))	3
CCC[C@H](NC(=O)Nc1ccc(Br)cc1)C(=O)NCC(=O)O	FPR2 (Homo sapiens (Human))	2
CC(C)C[C@H](NC(=O)Nc1ccc(Br)cc1)C(=O)O	FPR2 (Homo sapiens (Human))	5.95
CC(C)C[C@H](NC(=O)Nc1ccc(Br)cc1F)C(=O)NCC(=O)O	FPR2 (Homo sapiens (Human))	3.57
CC(C)C[C@H](NC(=O)Nc1ccc(Br)cc1)C(=O)NC(C)(C)C(=O)O	FPR2 (Homo sapiens (Human))	1.66
CC[C@H](C)[C@H](NC(=O)Nc1ccc(Br)cc1F)C(=O)O	FPR2 (Homo sapiens (Human))	31
CC[C@H](C)[C@H](NC(=O)Nc1ccc(Br)cc1)C(=O)NCC(=O)O	FPR2 (Homo sapiens (Human))	1.98

---

- measurement.target: FPR2 (Homo sapiens (Human))
- experiment.summary: FLIPR Ca+2 response, HEK-Gα16 cells stably expressing the human FPR2 receptor (Table 4)
- Assay type: cell-based
- condition: efficacy in parentheses
quantity.kind: FPR2 (efficacy)

compound	result
CCC[C@H](NC(=O)[C@H](CC(C)C)NC(=O)Nc1ccc(Br)cc1)C(N)=O [Compound 102]	nM (0.99)
CC(C)C[C@H](NC(=O)Nc1ccc(Br)cc1)C(=O)NCC(=O)N(C)C [Compound 120]	nM (0.99)
CCC[C@H](NC(=O)Nc1ccc(Br)cc1)C(=O)NCP(=O)(OCC)OCC [Compound 117]	nM (1.0)
O=C(O)CNC(=O)[C@H](Cc1ccccc1)NC(=O)Nc1ccc(Br)cc1 [Compound 55]	nM (0.99)
CC(C)C[C@H](NC(=O)Nc1ccc(Br)cc1)C(=O)N[C@H](C(N)=O)C(C)C [Compound 92]	nM (1.0)
CC(C)C[C@H](NC(=O)Nc1ccc(Br)cc1)C(=O)N[C@H](C)CO [Compound 96]	nM (1.0)

---

- measurement.target: FPR2 (Homo sapiens (Human), UniProt P25090)
- experiment.summary: FLIPR Ca+2 response, HEK-Gα16 cells stably expressing the human FPR2 receptor (Table 4)
- Type: cell-based
- condition: efficacy in parentheses
quantity.kind: FPR2 (efficacy)

molecule	measurement.target	quantity.kind	result
NC(=O)C1C(C(=O)Nc2ccc(Br)cc2)C2CCC1C21CC1 (single isomer, unassigned; (-)) [Compound 45]	FPR2 (Homo sapiens (Human), UniProt P25090)	FPR2 (efficacy)	nM (0.91)
CC(C)C1(CC(=O)NCCO)NC(=O)N(NC(=O)Nc2ccc(Br)cc2)C1=O (centres unmarked) [Compound 133]	FPR2 (Homo sapiens (Human), UniProt P25090)	FPR2 (efficacy)	nM (1.0)
CCC[C@H](NC(=O)Nc1ccc(Br)cc1)C(=O)O [Compound 70]	FPR2 (Homo sapiens (Human), UniProt P25090)	FPR2 (efficacy)	nM (1.0)
CC1(CCc2ccccc2O)NC(=O)N(NC(=O)Nc2ccc(Br)cc2F)C1=O (centres unmarked) [Compound 106]	FPR2 (Homo sapiens (Human), UniProt P25090)	FPR2 (efficacy)	nM (0.91)

---

- measurement.target: FPR2 (Homo sapiens (Human))
- experiment.summary: FLIPR Ca+2 response, HEK-Gα16 cells stably expressing the human FPR2 receptor (Table 4)
- Format: cell-based
- condition: efficacy in parentheses
quantity.kind: FPR2 (efficacy)

compound	result
CC1(CCc2ccc(F)cc2)NC(=O)N(NC(=O)Nc2ccc(Br)cc2)C1=O (centres unmarked) [Compound 82]	nM (1.0)
CCC[C@H](NC(=O)Nc1ccc(Br)cc1)C(=O)NCP(=O)(OC(C)C)OC(C)C [Compound 125]	nM (1.0)
O=C(Nc1ccc(Br)cc1)NN1C(=O)NC2(CCCCC2)C1=O [Compound 52]	nM (1.0)

---

- measurement.target: UniProt P25090
- experiment.summary: FLIPR Ca+2 response, HEK-Gα16 cells stably expressing the human FPR2 receptor (Table 4)
- Assay type: cell-based
pEC50: −log10 of the molar value.
Entries and their measured pEC50 follow.
quantity.kind: pEC50

compound	quantity.kind	quantitative.readout
CC(C)CC(C)(NC(=O)Nc1ccc(Br)cc1)C(=O)NCC(=O)O (stereo not drawn)	pEC50	7.72
CSc1ccc(NC(=O)C2C(C(N)=O)C3CCC2C3(C)C)cc1 (stereo not drawn)	pEC50	7.77
CCOP(=O)(O)CNC(=O)[C@H](CC(C)C)NC(=O)Nc1ccc(C(F)(F)F)cc1	pEC50	8.72
CC(C)C[C@H](NC(=O)Nc1ccc(I)cc1)C(=O)O	pEC50	8.40
O=C(Nc1ccc(Br)cc1)N[C@@H](Cc1ccccc1)C(=O)NCCO	pEC50	8.15
O=C(Nc1ccc(Br)cc1F)N[C@@H](Cc1ccccc1)C(=O)NCCO	pEC50	7.81
N#Cc1ccc(C2Cc3ccc(NC(=O)Nc4ccc(I)cc4)cc3C(=O)N2CCCN)cc1 (stereo not drawn)	pEC50	7.86
CSc1ccc(NC(=O)Nc2ccc3c(c2)C(=O)N(CCc2c[nH]cn2)C(c2ccc(C#N)cc2)C3)cc1 (stereo not drawn)	pEC50	8.26
CC(C)C[C@H](NC(=O)Nc1ccc(Br)cc1)C(=O)NCC(C)(C)O	pEC50	8.60
CC(C)C[C@H](NC(=O)Nc1ccc(Br)cc1F)C(=O)NCC(N)=O	pEC50	8.35
CCC[C@H](NC(=O)Nc1ccc(Br)cc1)C(=O)NCP(=O)(OCC)OCC	pEC50	9.57
CC1(CCc2cccc(O)c2)NC(=O)N(NC(=O)Nc2ccc(Br)cc2F)C1=O (stereo not drawn)	pEC50	8.66
CSc1ccc(NC(=O)Nc2ccc3c(c2)C(=O)N(CCCN)[C@@H](c2ccc(C#N)cc2)C3)cc1	pEC50	8.48
CC(C)C[C@H](NC(=O)Nc1ccc(Br)cc1)C(=O)NCC(=O)N(C)C	pEC50	8.77
CC(C)C[C@H](NC(=O)Nc1ccc(C(F)(F)F)cc1)C(=O)NC(C)(C)C(=O)O	pEC50	8.60
CCC[C@H](NC(=O)Nc1ccc(Br)cc1)C(=O)NCC(=O)OC	pEC50	7.79
CC(C)C[C@H](NC(=O)Nc1ccc(Br)cc1F)C(=O)N[C@@H](C)C(=O)O	pEC50	7.92
CC(C)C1(CO)NC(=O)N(NC(=O)Nc2ccc(Br)cc2)C1=O (stereo not drawn)	pEC50	7.79
NC(=O)C1C(C(=O)Nc2ccc(Br)cc2)C2CCC1C21CC1 (stereo not drawn)	pEC50	8.60
CC[C@H](C)[C@H](NC(=O)Nc1ccc(Br)cc1)C(=O)NCC(C)=O	pEC50	7.98
CCC1(CCc2ccccc2C(=O)O)NC(=O)N(NC(=O)Nc2ccc(Br)cc2F)C1=O (stereo not drawn)	pEC50	7.95
CCC1(CC)NC(=O)N(NC(=O)Nc2ccc(Br)cc2)C1=O	pEC50	7.94
CCOP(=O)(CNC(=O)[C@H](CC(C)C)NC(=O)Nc1ccc(Br)cc1)OCC	pEC50	9.32
NC(=O)C1C(C(=O)Nc2ccc(I)cc2)C2CCC1C21CC1 (stereo not drawn)	pEC50	8.72
O=C(Nc1ccc(Br)cc1)NN1C(=O)NC2(CCCCC2)C1=O	pEC50	7.82
CC(=O)CNC(=O)[C@H](Cc1ccccc1)NC(=O)Nc1ccc(Br)cc1F	pEC50	7.91
CCNC(=O)C1C(C(=O)Nc2ccc(Br)cc2)C2CCC1C21CC1 (stereo not drawn)	pEC50	8.03
